// reported Ratio TD50/ED50 per item
- System: Rattus norvegicus
- Test summary: Protective index, ratio of neurotoxicity TD50 to anticonvulsant ED50 for po dosed albino Spague-Dawley rat
- Format: functional

1. C#CCOC[C@@H](NC(C)=O)C(=O)NCc1ccccc1 | >63
2. CC(=O)N[C@H](COCCN=[N+]=[N-])C(=O)NCc1ccccc1 | >13
3. CCOC[C@@H](NC(C)=O)C(=O)NCc1ccccc1 | >89
4. CC(=O)N[C@H](COC(C)C)C(=O)NCc1ccccc1 | >58

Enquiry: Check the records and state Ratio TD50/ED50 for "C#CCCOC[C@@H](NC(C)=O)C(=O)NCc1ccccc1"
Return: >23

Enquiry: Check the records and state Ratio TD50/ED50 for "CC(=O)N[C@H](COCCC1(C)N=N1)C(=O)NCc1ccccc1"
Return: >11

Enquiry: Check the records and state Ratio TD50/ED50 for "C=CCCOC[C@@H](NC(C)=O)C(=O)NCc1ccccc1"
Return: >29

###

- Test summary: Neurotoxicity in ip dosed albino Sprague-Dawley rat by rotarod test
- Assay type: toxicity, organism-based, albino Spague-Dawley
- Experimental parameters: in vivo
Measured attribute: TD50

Enquiry: Check the records and state TD50 for "CC(=O)N[C@H](COCCN=[N+]=[N-])C(=O)NCc1ccccc1"
Return: 78 mg/kg

###

- Test summary: Neurotoxicity in po dosed albino Sprague-Dawley rat by rotarod test
- Assay type: toxicity, organism-based, albino Spague-Dawley
- Experimental parameters: in vivo
// reported TD50 per item

Some compounds with recorded TD50:
1. CC(=O)N[C@H](COCCC1CC1)C(=O)NCc1ccccc1 | > 30 mg/kg
2. COCCOCCOC[C@@H](NC(C)=O)C(=O)NCc1ccccc1 | > 50 mg/kg
3. CC(=O)N[C@H](COCCN=C=S)C(=O)NCc1ccccc1 | > 30 mg/kg
4. C=CCCOC[C@@H](NC(C)=O)C(=O)NCc1ccccc1 | > 500 mg/kg
5. CC(=O)N[C@H](COC(C)C)C(=O)NCc1ccccc1 | > 500 mg/kg

Enquiry: Check the records and state TD50 for COC[C@@H](NC(C)=O)C(=O)NCc1ccccc1 [LACOSAMIDE]
Return: > 500 mg/kg

###

- Test summary: Neurotoxicity in ip dosed albino Carworth Farms number 1 mouse by rotarod test
- Type: toxicity, organism-based
- Experimental parameters: in vivo
Mark Yes for TD50 under 200 mg/kg, No if at or over.

// below: answered compounds
1) C=CCOCC(NC(C)=O)C(=O)NCc1ccccc1 (racemic) | Yes
2) C#CCCOC[C@@H](NC(C)=O)C(=O)NCc1ccccc1 | Yes
3) CC(=O)N[C@H](COCCc1ccccc1)C(=O)NCc1ccccc1 | Yes

Enquiry: Is the reported TD50 for "CC#CCOC[C@@H](NC(C)=O)C(=O)NCc1ccccc1" strictly below 200 mg/kg?
Return: Yes

Enquiry: Is the reported TD50 for "C=CCCOC[C@@H](NC(C)=O)C(=O)NCc1ccccc1" strictly below 200 mg/kg?
Return: Yes

Enquiry: Is the reported TD50 for "CC(=O)NCCOC[C@@H](NC(C)=O)C(=O)NCc1ccccc1" strictly below 200 mg/kg?
Return: No

###

- Test summary: Neurotoxicity in po dosed albino Sprague-Dawley rat by rotarod test
- Format: toxicity, organism-based, albino Spague-Dawley
- Experimental parameters: in vivo
Measured attribute: TD50

Some compounds with recorded TD50:
1. C#CCCOC[C@@H](NC(C)=O)C(=O)NCc1ccccc1 | 250 mg/kg
2. CC(=O)N[C@H](COC1CCCCC1)C(=O)NCc1ccccc1 | > 30 mg/kg
3. CCOC[C@@H](NC(C)=O)C(=O)NCc1ccccc1 | > 500 mg/kg
4. CC(=O)NCCOC[C@@H](NC(C)=O)C(=O)NCc1ccccc1 | > 30 mg/kg
5. CC(=O)N[C@H](COCCc1ccccc1)C(=O)NCc1ccccc1 | > 30 mg/kg
6. C#CCOC[C@@H](NC(C)=O)C(=O)NCc1ccccc1 | > 500 mg/kg
7. CC(=O)N[C@H](COCc1ccccc1)C(=O)NCc1ccccc1 | > 30 mg/kg
8. CC#CCOC[C@@H](NC(C)=O)C(=O)NCc1ccccc1 | > 500 mg/kg

Enquiry: Check the records and state TD50 for "[2H]C([2H])([2H])OC[C@@H](NC(C)=O)C(=O)NCc1ccccc1"
Return: 200 mg/kg

Enquiry: Check the records and state TD50 for "CC(=O)N[C@H](COCCC1(C)N=N1)C(=O)NCc1ccccc1"
Return: > 500 mg/kg

###

// reported TD50 per item
- Test summary: Neurotoxicity in ip dosed albino Carworth Farms number 1 mouse by rotarod test
- Assay type: toxicity, organism-based
- Experimental parameters: in vivo
Answer with a number only, understood to be in mg/kg.

Some molecules with recorded TD50:
1) CC(=O)N[C@H](COC1CCCCC1)C(=O)NCc1ccccc1 | 300
2) CC(=O)N[C@H](COCCC1CC1)C(=O)NCc1ccccc1 | 85
3) CC(=O)N[C@H](COCCN=C=S)C(=O)NCc1ccccc1 | 100
4) CC(=O)N[C@H](COCc1ccccc1)C(=O)NCc1ccccc1 | 200

Enquiry: Check the records and state TD50 for "CC(=O)N[C@H](COCCC1(C)N=N1)C(=O)NCc1ccccc1"
Return: 100

Enquiry: Check the records and state TD50 for "CC(=O)N[C@H](COC(C)(C)C)C(=O)NCc1ccccc1"
Return: 300

Enquiry: Check the records and state TD50 for "COCCOC[C@@H](NC(C)=O)C(=O)NCc1ccccc1"
Return: 300

Enquiry: Check the records and state TD50 for "CC(=O)N[C@H](COCC1CCCCC1)C(=O)NCc1ccccc1"
Return: 300

###

- Test summary: Neurotoxicity in ip dosed albino Carworth Farms number 1 mouse by rotarod test
- Type: toxicity, organism-based
- Experimental parameters: in vivo
Measured attribute: TD50

Some compounds with recorded TD50:
1. CC(=O)N[C@H](COCCC=O)C(=O)NCc1ccccc1 | > 300 mg/kg
2. COCCOCCOC[C@@H](NC(C)=O)C(=O)NCc1ccccc1 | > 300 mg/kg
3. CC(=O)N[C@H](COc1ccccc1)C(=O)NCc1ccccc1 | > 600 mg/kg
4. CC(=O)N[C@H](COCCC1CO1)C(=O)NCc1ccccc1 (mixture of isomers) | > 300 mg/kg

Switching to the query record.
Enquiry: Check the records and state TD50 for "COCc1cn(CCOC[C@@H](NC(C)=O)C(=O)NCc2ccccc2)nn1"
Return: > 300 mg/kg
